test: folding stability dG unfold (combined trypsin and chymotrypsin); higher = more stable
Below, each of the sequences is paired with its reported folding stability dG unfold value.

Consider the worked cases shown below.
sequence_input: PIITVSSLEELKKAIKELVEKIVEEAKKAGYPDKKVIVSIPVVLIDEKTGKPKILPILIEIYPDGTVKIYGS [r1_316_TrMRF]
measurement_type: folding stability dG unfold
result: > 6 kcal/mol
--
sequence_input: SAGGSAGGSASYSVTISPEERIEPVVDYKTGERRLVERRRVVVTADPKLSPALKAAILAALSSAGGSAGGSA [r18_438_JUSTAS]
measurement_type: folding stability dG unfold
result: -0.237 kcal/mol
--
sequence_input: SAGGGEKWKIKFKDAEAYINAPEGKVEIVPPDGSKITIDFPPDIPPEVVAKLLAEELGFDEAEIEPVESAGG [r13_852_TrMRF]
measurement_type: folding stability dG unfold
result: 0.168 kcal/mol

Please find the next sequence below.
Lab note: measured folding stability dG unfold of SAGGSAGGSAGRRLVLEFDDESLAVPAAEFLERVLGLELVSIERVPDGERERVLVVLDFPSAGGSAGGSAGG [r11_232_TrMRF] was 2.21 kcal/mol
